Biological target: Dual specificity tyrosine-phosphorylation-regulated kinase 1A (Homo sapiens); further: in the data inactive means no Kd found up to 30 µM
Activity calls are given as the source filed them.
Parameter call: string, one of label 1 (active), label 0 (inactive)

Solved entries (count: 5):
{"molecule": "Cn1cnc2c(F)c(Nc3ccc(Br)cc3F)c(C(=O)NOCCO)cc21 [BINIMETINIB]", "label_class": "label 0"}
{"molecule": "Cn1cc(-c2cnc3ccc4ccc(CS(=O)(=O)NCc5ccccn5)cc4c(=O)c3c2)cn1 [MK-8033]", "label_class": "label 0"}
{"molecule": "O=C1NC(=O)[C@@H](c2cn3c4c(cccc24)CCC3)[C@@H]1c1c[nH]c2ccccc12 [TIVANTINIB]", "label_class": "label 0"}
{"molecule": "COc1ncc(-c2ccc3nccc(-c4ccnnc4)c3c2)cc1NS(=O)(=O)c1ccc(F)cc1F [OMIPALISIB]", "label_class": "label 0"}
{"molecule": "CN1CCN(CCOc2cc(OC3CCOCC3)c3c(Nc4c(Cl)ccc5c4OCO5)ncnc3c2)CC1 [SARACATINIB]", "label_class": "label 0"}

Q: Lab log entry: O=C(Nc1cc(C(F)(F)F)cc(C(F)(F)F)c1)c1cc(Cl)ccc1O [IMD-0354] — outcome as called in the assay?
Ans: label 0

Q: Outcome? N#CC1(c2ccc(NC(=O)c3cccnc3NCc3ccncc3)cc2)CCCC1 [RIVOCERANIB]
Ans: label 0

Q: # lookup: test call for NC(=O)Nc1cc(-c2cccc(F)c2)sc1C(=O)N[C@H]1CCCNC1 [AZD-7762]
Ans: label 1

Q: Which outcome did this test record for the molecule C[C@@H](NC(=O)c1ncnc(N)c1Cl)c1ncc(C(=O)Nc2cc(C(F)(F)F)c(Cl)cn2)s1 [TOVORAFENIB] ?
Ans: label 1

Q: Query: recorded result category for `C[C@@H](Oc1cc(C(=O)Nc2ccc(C(=O)N3CCN(C)CC3)cc2)nnc1N)c1c(Cl)ccc(F)c1Cl` in this test
Ans: label 0

---

Target: Dual specificity protein kinase CLK1 (Homo sapiens, UniProt P49759); further: in the data inactive means no Kd found up to 30 µM
Sequence (P49759 whole entry): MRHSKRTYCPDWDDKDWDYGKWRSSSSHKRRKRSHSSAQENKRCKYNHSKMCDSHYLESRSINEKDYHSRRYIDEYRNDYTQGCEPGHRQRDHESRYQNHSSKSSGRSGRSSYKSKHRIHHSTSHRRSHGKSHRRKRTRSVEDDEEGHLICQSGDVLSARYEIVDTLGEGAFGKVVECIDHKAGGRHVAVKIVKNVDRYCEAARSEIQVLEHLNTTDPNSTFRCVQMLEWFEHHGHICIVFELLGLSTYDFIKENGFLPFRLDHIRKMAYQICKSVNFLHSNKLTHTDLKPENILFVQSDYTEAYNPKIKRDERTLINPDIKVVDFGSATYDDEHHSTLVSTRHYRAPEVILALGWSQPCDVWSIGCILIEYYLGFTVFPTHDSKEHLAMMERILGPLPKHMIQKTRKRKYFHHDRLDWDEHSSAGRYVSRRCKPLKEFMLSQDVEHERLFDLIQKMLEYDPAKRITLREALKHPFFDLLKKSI
Activity calls are given as the source filed them.
Please state which outcome applies, choosing from yes (active), no (inactive)

{"compound": "COc1cc(Nc2ncc3c(n2)-c2ccc(Cl)cc2C(c2c(F)cccc2OC)=NC3)ccc1C(=O)O [ALISERTIB]", "label_class": "no"}
{"compound": "C#Cc1cccc(Nc2ncnc3cc(OC)c(OCCCCCCC(=O)NO)cc23)c1 [CUDC-101]", "label_class": "no"}
{"compound": "Cc1nc(Nc2n[nH]c3c2CN(C(=O)N[C@H](CN(C)C)c2ccccc2)C3(C)C)c2sccc2n1 [PF-03758309]", "label_class": "yes"}

Q: // return assay outcome for Cn1cc(-c2cnn3c(N)c(Br)c([C@@H]4CCCNC4)nc23)cn1 [SCH-900776]
Ans: no

---

Biological target: Receptor-interacting serine/threonine-protein kinase 2 (Homo sapiens, UniProt O43353); further: in the data inactive means no Kd found up to 30 µM
Sequence (O43353 whole entry): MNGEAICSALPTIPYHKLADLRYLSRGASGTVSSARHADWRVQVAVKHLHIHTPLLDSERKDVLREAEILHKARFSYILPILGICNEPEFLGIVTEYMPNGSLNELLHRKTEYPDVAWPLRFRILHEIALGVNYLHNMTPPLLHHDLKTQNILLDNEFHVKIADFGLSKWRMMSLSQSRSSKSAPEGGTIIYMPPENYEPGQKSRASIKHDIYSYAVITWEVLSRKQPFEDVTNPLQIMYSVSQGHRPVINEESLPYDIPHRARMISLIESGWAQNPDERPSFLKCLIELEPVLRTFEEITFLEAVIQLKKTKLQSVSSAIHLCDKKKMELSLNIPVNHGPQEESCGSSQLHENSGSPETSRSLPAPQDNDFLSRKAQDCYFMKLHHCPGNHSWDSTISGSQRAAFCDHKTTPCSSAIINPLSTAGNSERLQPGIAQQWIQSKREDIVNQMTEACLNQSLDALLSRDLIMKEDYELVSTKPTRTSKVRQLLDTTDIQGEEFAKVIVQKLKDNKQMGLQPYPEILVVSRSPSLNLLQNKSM
The source made the active and inactive calls.
A correct response names exactly one class from T = active, F = inactive

Study these solved cases before continuing.
{"molecule": "COc1cc([C@@H]2c3cc4c(cc3[C@H](O)[C@H]3COC(=O)[C@@H]23)OCO4)cc(OC)c1OC [AXL-1717]", "label_class": "F"}
{"molecule": "CC(C)(C)c1nc(-c2cccc(NS(=O)(=O)c3c(F)cccc3F)c2F)c(-c2ccnc(N)n2)s1 [DABRAFENIB]", "label_class": "T"}

Q: Record lookup: outcome of this test for Cc1nc2cc(-n3ncc(C(=O)c4cc5ccccc5[nH]4)c3N)ccc2[nH]1 [FGFR INHIBITOR DEBIO 1347] ?
Ans: F

Q: Assay outcome for O=c1[nH]ccc2cc(OC3CCNCC3)ccc12 [SAR-407899 FREE BASE] : what was it?
Ans: F

Q: Returns: the outcome recorded for Cc1cnc(NC(=O)Nc2cc(Br)c(C)cc2OC[C@@H]2CNCCO2)cn1 [RABUSERTIB] in this assay.
Ans: F

Q: What call does the record list for CC(C)c1cc(CNc2nc(Nc3cc(C4CC4)[nH]n3)cc(N3CCN(C)CC3)n2)on1 [XL-228] ?
Ans: F

Value source: ChEMBL document CHEMBL3991601
